Hi there, I'd appreciate the recorded viability, T/C for every entry that follows.
# Tested on: 885724-159-R-J1-PDC complex spheroid viability
# protocolNotes: Anticancer human tumor 885724-159-R-J1-PDC patient-derived pancreatic adenocarcinoma cell line growth inhibition [GQUAD]
# appliedConditions: second compound 0.0316 µM; first compound 0.0316 µM; stronger effect = lower value
Answers are plain numbers, in %.

The examples below pair each entry with its known result.
Request: Give the reported viability, T/C for CC1COCCN1c1cc(C2(S(C)(=N)=O)CC2)nc(-c2ccnc3[nH]ccc23)n1 (stereo unspecified) + Cc1cnc(CNC(=O)c2c(=O)c3ccc(N4CCCN(C)CC4)nc3n3c2sc2ccccc23)cn1 (system: 885724-159-R-J1-PDC complex spheroid viability).
Response: 101

Request: Give the reported viability, T/C for C=CCn1c(=O)c2cnc(Nc3ccc(N4CCN(C)CC4)cc3)nc2n1-c1cccc(C(C)(C)O)n1 + Cc1[nH]c2ccc(F)cc2c1-c1nc2c3cccnc3c3ncccc3c2[nH]1 (system: 885724-159-R-J1-PDC complex spheroid viability).
Response: 88.7

Request: Give the reported viability, T/C for COc1cccc2c1C(=O)c1c(O)c3c(c(O)c1C2=O)CC(O)(C(=O)CO)CC3OC1CC(N)C(O)C(C)O1 (stereo unspecified) + Cc1cnc(CNC(=O)c2c(=O)c3ccc(N4CCCN(C)CC4)nc3n3c2sc2ccccc23)cn1 (system: 885724-159-R-J1-PDC complex spheroid viability).
Response: 118

Request: Give the reported viability, T/C for CC1COCCN1c1cc(C2(O)CC3CCC(C2)O3)c2cnn(-c3ccn[nH]3)c2n1 (stereo unspecified) + CN(C)c1ccc(Nc2c3ccc(NC(=O)CCN4CCCC4)cc3nc3cc(NC(=O)CCN4CCCC4)ccc23)cc1 (system: 885724-159-R-J1-PDC complex spheroid viability).
Response: 89

Request: Give the reported viability, T/C for C#Cc1c(F)ccc2cc(O)cc(-c3ncc4c(N5CC6CCC(C5)N6)nc(OCC56CCCN5CC(F)C6)nc4c3F)c12 (stereo unspecified) + Cc1[nH]c2ccc(F)cc2c1-c1nc2c3cccnc3c3ncccc3c2[nH]1 (system: 885724-159-R-J1-PDC complex spheroid viability).
Response: 97

Quick request: viability, T/C for each listed item, please.
1. CCc1c2c(nc3ccc(O)cc13)-c1cc3c(c(=O)n1C2)COC(=O)[C@]3(O)CC + CN(C)c1ccc(Nc2c3ccc(NC(=O)CCN4CCCC4)cc3nc3cc(NC(=O)CCN4CCCC4)ccc23)cc1
2. CC(C)(O)C1CCC(Nc2ccc3ncc(-c4cccc(C(F)(F)F)c4)n3n2)CC1 (stereo unspecified) + Cc1[nH]c2ccc(F)cc2c1-c1nc2c3cccnc3c3ncccc3c2[nH]1
3. CC1COCCN1c1cc(C2(O)CC3CCC(C2)O3)c2cnn(-c3ccn[nH]3)c2n1 (stereo unspecified) + Cc1cnc(CNC(=O)c2c(=O)c3ccc(N4CCCN(C)CC4)nc3n3c2sc2ccccc23)cn1
4. C=CC(=O)N1CCN(c2nc(=O)n(-c3c(C)ccnc3C(C)C)c3nc(-c4c(O)cccc4F)c(F)cc23)C(C)C1 (stereo unspecified) + Cc1[nH]c2ccc(F)cc2c1-c1nc2c3cccnc3c3ncccc3c2[nH]1
5. Nc1ccn(C2OC(CO)C(O)C2(F)F)c(=O)n1 (stereo unspecified) + Cc1[nH]c2ccc(F)cc2c1-c1nc2c3cccnc3c3ncccc3c2[nH]1
6. C#Cc1c(F)ccc2cc(O)cc(-c3ncc4c(N5CC6CCC(C5)N6)nc(OCC56CCCN5CC(F)C6)nc4c3F)c12 (stereo unspecified) + Cc1cnc(CNC(=O)c2c(=O)c3ccc(N4CCCN(C)CC4)nc3n3c2sc2ccccc23)cn1
7. CC(C)(O)C1CCC(Nc2ccc3ncc(-c4cccc(C(F)(F)F)c4)n3n2)CC1 (stereo unspecified) + CN(C)c1ccc(Nc2c3ccc(NC(=O)CCN4CCCC4)cc3nc3cc(NC(=O)CCN4CCCC4)ccc23)cc1
8. CC[C@@]1(O)C(=O)OCc2c1cc1n(c2=O)Cc2cc3c(CN(C)C)c(O)ccc3nc2-1 + Cc1[nH]c2ccc(F)cc2c1-c1nc2c3cccnc3c3ncccc3c2[nH]1

Response:
[56.9, 96.3, 96.9, 97.3, 92.8, 91.6, 109, 97.6]

Quick request: viability, T/C for each listed item, please.
1. Cc1[nH]c2ccccc2c1CCNCc1ccc(/C=C/C(=O)NO)cc1 + CN(C)c1ccc(Nc2c3ccc(NC(=O)CCN4CCCC4)cc3nc3cc(NC(=O)CCN4CCCC4)ccc23)cc1
2. O=C(NO)c1cnc(N2CCN(S(=O)(=O)c3ccc4ccccc4c3)CC2)nc1 + Cc1[nH]c2ccc(F)cc2c1-c1nc2c3cccnc3c3ncccc3c2[nH]1
3. CC1COCCN1c1cc(-c2ccnn2C)c2ccnc(-c3ccn[nH]3)c2n1 (stereo unspecified) + Cc1cnc(CNC(=O)c2c(=O)c3ccc(N4CCCN(C)CC4)nc3n3c2sc2ccccc23)cn1
4. CC(=O)O[C@H]1C(=O)[C@@]2(C)[C@H]([C@H](OC(=O)c3ccccc3)[C@]3(O)C[C@H](OC(=O)[C@H](O)[C@@H](NC(=O)c4ccccc4)c4ccccc4)C(C)=C1C3(C)C)[C@]1(OC(C)=O)CO[C@@H]1C[C@@H]2O + Cc1[nH]c2ccc(F)cc2c1-c1nc2c3cccnc3c3ncccc3c2[nH]1
5. COc1cccc2c1C(=O)c1c(O)c3c(c(O)c1C2=O)CC(O)(C(=O)CO)CC3OC1CC(N)C(O)C(C)O1 (stereo unspecified) + Cc1[nH]c2ccc(F)cc2c1-c1nc2c3cccnc3c3ncccc3c2[nH]1
6. Cn1ncnc1[C@H]1c2n[nH]c(=O)c3cc(F)cc(c23)N[C@@H]1c1ccc(F)cc1 + CN(C)c1ccc(Nc2c3ccc(NC(=O)CCN4CCCC4)cc3nc3cc(NC(=O)CCN4CCCC4)ccc23)cc1

Response:
96.9
101
86.4
102
104
107

Quick request: viability, T/C for each listed item, please.
1. CCc1c2c(nc3ccc(O)cc13)-c1cc3c(c(=O)n1C2)COC(=O)[C@]3(O)CC + Cc1cnc(CNC(=O)c2c(=O)c3ccc(N4CCCN(C)CC4)nc3n3c2sc2ccccc23)cn1
2. CC1COCCN1c1cc(C2(S(C)(=N)=O)CC2)nc(-c2ccnc3[nH]ccc23)n1 (stereo unspecified) + CN(C)c1ccc(Nc2c3ccc(NC(=O)CCN4CCCC4)cc3nc3cc(NC(=O)CCN4CCCC4)ccc23)cc1

Response:
66.2
102

* * *

Hi there, I'd appreciate the recorded IC50 for every entry that follows.
# Tested on: 885724-159-R-J1-PDC complex spheroid viability
# protocolNotes: Anticancer human tumor 885724-159-R-J1-PDC cell line growth inhibition [GQUAD];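 note: spheroids exposed to agents for seven days before readout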
# appliedConditions: curve of first compound; second compound 0.0316 µM
Answers are plain numbers, in µM.

Request: Name the reported IC50 value associated with the compound COc1ccc([C@@H](O)c2cc(-c3ncnc4cc(N5CCOCC5)ccc34)c(F)cc2Cl)nn1 + CN(C)c1ccc(Nc2c3ccc(NC(=O)CCN4CCCC4)cc3nc3cc(NC(=O)CCN4CCCC4)ccc23)cc1
Response: 6.35

Then there is this compound:
Request: Name the reported IC50 value associated with the compound CCc1c2c(nc3ccc(O)cc13)-c1cc3c(c(=O)n1C2)COC(=O)[C@]3(O)CC + CN(C)c1ccc(Nc2c3ccc(NC(=O)CCN4CCCC4)cc3nc3cc(NC(=O)CCN4CCCC4)ccc23)cc1
Response: 0.0568

* * *

Hi there, I'd appreciate the recorded viability, T/C for every entry that follows.
# System: 885724-159-R-J1-PDC complex spheroid viability
# protocolNotes: Anticancer human tumor 885724-159-R-J1-PDC cell line growth inhibition [GQUAD];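 note: spheroids exposed to agents for seven days before readout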;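 for viability, T/C: percent of vehicle control viability where 100% = DMSO wells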
# appliedConditions: second compound 10 µM; first compound 0.1 µM; stronger effect = lower value
# Source text: DNA G-quadruplex Stabilizer Agents in Combinations in Complex Spheroids A high-throughput screen of multi-cell type tumor spheroids was designed to identify active combinations of DNA G-quadruplex stabilizer agents and targeted small molecules. […] Compounds. […] If the clinical Cmax for an agent had not been determined, the highest concentration tested was 10 microM. […]
One number for each entry, in %.

The examples below pair each entry with its known result.
Request: Name the reported viability, T/C value associated with the compound CC(=O)O[C@H]1C(=O)[C@@]2(C)[C@H]([C@H](OC(=O)c3ccccc3)[C@]3(O)C[C@H](OC(=O)[C@H](O)[C@@H](NC(=O)c4ccccc4)c4ccccc4)C(C)=C1C3(C)C)[C@]1(OC(C)=O)CO[C@@H]1C[C@@H]2O + Cc1[nH]c2ccc(F)cc2c1-c1nc2c3cccnc3c3ncccc3c2[nH]1
Response: 53.2

Request: Name the reported viability, T/C value associated with the compound COc1ccc([C@@H](O)c2cc(-c3ncnc4cc(N5CCOCC5)ccc34)c(F)cc2Cl)nn1 + CN(C)c1ccc(Nc2c3ccc(NC(=O)CCN4CCCC4)cc3nc3cc(NC(=O)CCN4CCCC4)ccc23)cc1
Response: 81.5

Request: Name the reported viability, T/C value associated with the compound CC1COCCN1c1cc(C2(O)CC3CCC(C2)O3)c2cnn(-c3ccn[nH]3)c2n1 (configuration not stated) + CN(C)c1ccc(Nc2c3ccc(NC(=O)CCN4CCCC4)cc3nc3cc(NC(=O)CCN4CCCC4)ccc23)cc1
Response: 66.7

Request: Name the reported viability, T/C value associated with the compound O=c1[nH]cc(F)c(=O)[nH]1 + Cc1cnc(CNC(=O)c2c(=O)c3ccc(N4CCCN(C)CC4)nc3n3c2sc2ccccc23)cn1
Response: 77

Request: Name the reported viability, T/C value associated with the compound CC(C)(O)C1CCC(Nc2ccc3ncc(-c4cccc(C(F)(F)F)c4)n3n2)CC1 (configuration not stated) + CN(C)c1ccc(Nc2c3ccc(NC(=O)CCN4CCCC4)cc3nc3cc(NC(=O)CCN4CCCC4)ccc23)cc1
Response: 63.5

Request: Name the reported viability, T/C value associated with the compound C=CCn1c(=O)c2cnc(Nc3ccc(N4CCN(C)CC4)cc3)nc2n1-c1cccc(C(C)(C)O)n1 + Cc1cnc(CNC(=O)c2c(=O)c3ccc(N4CCCN(C)CC4)nc3n3c2sc2ccccc23)cn1
Response: 70.4

Then there is this compound:
Request: Name the reported viability, T/C value associated with the compound O=c1[nH]cc(F)c(=O)[nH]1 + Cc1[nH]c2ccc(F)cc2c1-c1nc2c3cccnc3c3ncccc3c2[nH]1
Response: 77.2
